Assay System: T1, human SIRPγ-His monomer protein (human, UniProt Q9P1W8 29-360)
T1 construct: also called hSIRPγ
T1 sequence (Q9P1W8 29-360 limits assumed): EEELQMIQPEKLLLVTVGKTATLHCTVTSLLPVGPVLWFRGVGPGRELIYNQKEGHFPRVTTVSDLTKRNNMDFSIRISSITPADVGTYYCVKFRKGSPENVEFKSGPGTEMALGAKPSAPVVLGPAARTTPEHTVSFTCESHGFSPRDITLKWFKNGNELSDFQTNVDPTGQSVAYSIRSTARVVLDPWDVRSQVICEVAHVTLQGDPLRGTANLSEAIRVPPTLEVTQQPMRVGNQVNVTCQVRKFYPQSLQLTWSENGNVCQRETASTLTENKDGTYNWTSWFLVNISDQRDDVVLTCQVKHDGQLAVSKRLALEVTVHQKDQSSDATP
Assay: BLI Octet, V5-scFv PPE captured, SIRP-His 500 nM
Parameter Measured: kdis

Below, each entry is followed by its recorded kdis result.
Binder	Parameter Measured	Observed Measurement
Antibody 27 (scFv, V domains shown, scFv in crude PPE, V5/myc-tagged) VH: QVQLVQSGAEVKKPGASVKVSCKASGYTFTSHDINWVRQAPGQGLEWMGWMNANNGNAGYAQKFQGRVTMTRDTSTSTVYMELSSLRSEDTAVYYCAKDLSPSSSWSTYYYYYGMDVWGQGTMVTVSS VL: DIQMTQSPSSLSASVGDRVTITCRASQSISNLLAWYQQKPGKAPKLLIYAASSLQSGVPSRFSGSGSGTDFTLTISSLQPEDFATYYCQQSYSTPYTFGQGTKLEIK	kdis	0.001 to 0.01 s⁻¹
Antibody 11 (scFv, V domains shown, scFv in crude PPE, V5/myc-tagged) VH: QVQLVQSGAEVKKPGASVKVSCKASGYTFTSYDINWVRQAPGQGLEWMGWMNPNSGNTGYAQKFQGRVTMTRDTSTSTVYMELSSLRSEDTAVYYCAKGAVAGTYYYYGMDVWGQGTTVTVSS VL: DIQMTQSPSSLSASVGDRVTITCRASQTINNYLNWYQQKPGKAPKLLIYDASNLETGVPSRFSGSGSGTDFTLTISSLQPEDFATYYCQQANSFPLTFGQGTKVEIK	kdis	0.001 to 0.01 s⁻¹
Antibody 39 (scFv, V domains shown, scFv in crude PPE, V5/myc-tagged) VH: QVQLVQSGAEVKKPGASVKVSCKASGGTFSNYGFSWVRQAPGQGLEWMGWMSPSSGNTGYAQKFQGRVTMTRDTSTSTVYMELSSLRSEDTAVYYCARERSGSYFDYWGQGTLVTVSS VL: EIVMTQSPATLSVSPGERATLSCRASQSVSSYLAWYQQKPGQAPRLLIYGTSTRATGIPARFSGSGSGTEFTLTISSLQSEDFAVYYCQQYGSLPFTFGQGTRLEIK	kdis	0.001 to 0.01 s⁻¹
Antibody 41 (scFv, V domains shown, scFv in crude PPE, V5/myc-tagged) VH: QVQLVQSGAEVKKPGSSVKVSCKASGGTFSNYAISWVRQAPGQGLEWMGGIIPIFGSTASYAQKFQGRVTITADESTSTAYMELSSLRSEDTAVYYCARGVGDDTLTDWGQGTLVTVSS VL: DIVMTQSPLSLPVTPGEPASISCRSSQSLLHSNGYNYLDWYLQKPGQSPQLLIYAASSLQSGVPDRFSGSGSGTDFTLKISRVEAEDVGVYYCMQALQTPLTFGGGTKVEIK	kdis	> 0.01 s⁻¹
Antibody 9 (scFv, V domains shown, scFv in crude PPE, V5/myc-tagged) VH: QVQLVQSGAEVKKPGASVKVSCKASGYSFSDYYMHWVRQAPGQGLEWMGWMSPNSGNTGYAQKFQGRVTMTRDTSTSTVYMELSSLRSEDTAVYYCARQREEYGHYYYGMDVWGQGTMVTVSS VL: EIVMTQSPATLSVSPGERATLSCRASQSLGSTYLAWYQQKPGQAPRLLIYGASTRATGIPARFSGSGSGTEFTLTISSLQSEDFAVYYCQQYYSSPPTFGQGTKVEIK	kdis	0.001 to 0.01 s⁻¹

Read the next record carefully.
Inquiry: What value of kdis has been reported for the following binder? Antibody 29 (scFv, V domains shown, scFv in crude PPE, V5/myc-tagged) VH: QVQLVQSGAEVKKPGASVKVSCKASGGTFSSYAISWVRQAPGQGLEWMGIINPSSSSTGYAQKFQGRVTMTRDTSTSTVYMELSSLRSEDTAVYYCARAGYYDSSGYYYSPYYGMDVWGQGTTVTVSS VL: EIVMTQSPATLSVSPGERATLSCRASQSISGSYLAWYQQKPGQAPRLLIYGASTRATGIPARFSGSGSGTEFTLTISSLQSEDFAVYYCQQYGSFPFTFGPGTKVDIK
Reply text: 0.001 to 0.01 s⁻¹
